# reported EC50; entries follow
Molecular target: RNA-binding protein pos-1 (Caenorhabditis elegans, UniProt G5EF15)
Sequence (G5EF15 whole entry, the tested form may be a part): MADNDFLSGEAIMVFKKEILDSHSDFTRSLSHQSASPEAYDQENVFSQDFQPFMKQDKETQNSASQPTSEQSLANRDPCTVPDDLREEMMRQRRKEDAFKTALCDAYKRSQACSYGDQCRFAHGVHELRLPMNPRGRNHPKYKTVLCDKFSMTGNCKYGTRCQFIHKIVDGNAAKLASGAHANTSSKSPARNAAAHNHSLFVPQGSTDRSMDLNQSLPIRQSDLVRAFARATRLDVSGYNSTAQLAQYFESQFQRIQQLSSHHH
Assay: inhibitors of POS-1/mex-3 RNA binding, dose response, biochemical, fluorescence polarization (AID 1964);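 also: purified POS-1 fused to maltose binding protein made in E. coli; potency of compounds blocking POS-1 binding to fluorescent RNA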
Activity calls are given as the source filed them. Rule as the data show it: actives have a measured EC50 and inactives only a lower limit.

Solved cases below.
Brc1cc2c(cc1C1Nc3ccccc3C3C=CCC31)OCO2 (stereo not given) = > 300 µM (not active)
C/C(=N\c1ccc(Br)cc1)c1sc2ccccc2c1O = > 300 µM (not active)
C=CC1=C(C)c2cc3[nH]c(cc4nc(cc5[nH]c(cc1n2)c(C)c5CCC(=O)O)C(CCC(=O)O)=C4C)c(C)c3C=C = 9.95 µM (active)
Cc1ccc(C2C3CN(C(C)C)CC=C3C(C#N)=C(N)C2(C#N)C#N)cc1 (stereo not given) = 7.15 µM (inconclusive)
O=C(NNS(=O)(=O)c1ccc([N+](=O)[O-])cc1)C(=O)Nc1cccc(C(=O)O)c1 = 9.52 µM (inconclusive)

Short answer please: EC50, RNA-binding protein pos-1 (Caenorhabditis elegans, UniProt G5EF15), entry CCOc1cccc(C2C(C(=O)c3ccc(C)o3)=C(O)C(=O)N2c2nccs2)c1 (stereo not given) 1.41 µM (inconclusive)

Give RNA-binding protein pos-1 (Caenorhabditis elegans, UniProt G5EF15) EC50 for O=C(O)c1cccc(-n2cccc2C=C2C(=O)c3ccccc3C2=O)c1 37 µM (active)

###

Molecular target: Heat shock factor protein 1 (Mus musculus)
Sequence (P38532 whole entry): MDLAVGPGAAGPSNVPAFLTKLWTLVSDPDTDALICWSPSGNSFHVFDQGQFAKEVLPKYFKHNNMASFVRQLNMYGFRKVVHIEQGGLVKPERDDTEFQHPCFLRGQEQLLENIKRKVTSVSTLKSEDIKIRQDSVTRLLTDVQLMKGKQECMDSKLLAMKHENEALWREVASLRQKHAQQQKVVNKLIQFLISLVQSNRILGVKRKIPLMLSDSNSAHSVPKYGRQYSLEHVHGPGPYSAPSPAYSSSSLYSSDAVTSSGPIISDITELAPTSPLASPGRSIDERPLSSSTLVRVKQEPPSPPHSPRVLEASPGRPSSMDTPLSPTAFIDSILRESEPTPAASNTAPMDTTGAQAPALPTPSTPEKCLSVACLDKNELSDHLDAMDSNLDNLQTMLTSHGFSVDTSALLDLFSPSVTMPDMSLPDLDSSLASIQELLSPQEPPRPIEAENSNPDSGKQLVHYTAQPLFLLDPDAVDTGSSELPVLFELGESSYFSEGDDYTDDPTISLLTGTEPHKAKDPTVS
Assay: HSF1 potentiators in luciferase reporter cells, confirmation, cell-based, NIH3T3, luminescence, dose retest (AID 435004);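 also: stress induced by proteasome inhibitor MG132 added 30 min after compound; luciferase reporter driven by HSF1 response element in NIH3T3 cells; actives raise luminescence as potentiators of the MG132 stress response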
Assay type: functional
Activity calls are given as the source filed them. Cut-off read from the data, not from the text of the source: actives have a measured EC50 and inactives only a lower limit.
Write down one outcome, taken from true = active, false = inactive

Cc1cc(NC(=O)CSc2nc3c(sc4ccccc43)c(=O)n2CCCN2CCOCC2)[nH]n1 = true
CC(=O)N1CCC2(CC1)NC(=O)N(c1ccccc1)N2 = true
CCOc1ccccc1CNCCN1CCOCC1.Cl = false
Cc1ccc[n+](CC(=O)Nc2ccc([N+](=O)[O-])cc2Cl)c1 = false
CCSC1(SCC)N=C(N)C2(C#N)C(c3ccc(OC)c(OC)c3OC)C12C#N (centres undefined) = true
Cc1cc(O)c2n(Cc3ccccc3Cl)nc[n+]2n1 = false

Dear colleague, could you share the recorded outcome for Cc1nn(C(CC(=O)O)C(=O)O)c(C)c1Br (centres undefined) when you have a moment? false

Field: outcome | Entry: COc1ccc(/C=C/C(=O)c2ccc(NS(=O)(=O)c3ccc(C)cc3)cc2)cc1O true

For this compound, state the assay outcome: Cc1ccc(Sc2ccc(NC(=O)CCl)cc2)c(C)c1 true

Hi, sorry to bother you, what did the test record for COc1ccc(/C=C/C(=O)c2ccc(O)cc2)cc1COc1ccc(F)cc1 ? true

Recorded test outcome, item Cc1cccc(-c2cc3c(nn2)-c2ccccc2C3=O)c1 true

Recorded test outcome, item CCc1nc(SCC(=O)c2ccc(Cl)s2)c2oc3ccccc3c2n1 true

Hi, sorry to bother you, what did the test record for Cc1ccc(C(C)(O)CS(=O)(=O)Cc2ccccc2Cl)cc1 (centres undefined) ? false

Look up the recorded call for Oc1ccc(N/C(S)=N/c2ccccc2)cc1 in this test. false

Kindly provide the recorded test outcome for the following compound: CCSc1nnc(NC(=O)c2cccnc2Cl)s1 false

Can you look up the reported call for CC(=O)N1N=C(c2ccccc2)CC1c1ccccc1[N+](=O)[O-] (centres undefined) for me? false

Field: outcome | Entry: CCN(c1ccccc1)S(=O)(=O)c1cc(NC(=O)Nc2ccccc2C#N)ccc1Cl false
